I'd appreciate it if you could supply EC50 values for the items below.
- Test system: RSV (Group A, Long Strain)
- ASSAY_INFO: Cytopathetic effect (CPE) protection antiviral assay, MTT readout
- Format: cell-based
- TEST_CONDITIONS: human respiratory syncytial virus, HEp-2, 96 h, HEp-2 cells, 0.2 MOI RSV, 4 days incubation, protection from CPE (Table 1); read-out: RSV EC50

INSERT INTO assay_data (molecule, assay_system, result) VALUES
  ('Cc1ccccc1N/C(=N/C#N)N1CCN(c2nc3ccccc3nc2C)CC1C(C)C (stereo not shown) [Example 1.52]', 'RSV (Group A, Long Strain)', '> 10 µM'),
  ('CC(C)C1CN(c2cnc3ccccc3n2)CCN1/C(=N\C#N)Nc1ccc(F)cc1Cl (stereo not shown) [Example 1.30]', 'RSV (Group A, Long Strain)', '> 10 µM'),
  ('CC(C)CC1CN(c2cnc3ccccc3n2)CCN1/C(=N\C#N)Nc1cccc(F)c1 (stereo not shown) [Example 1.40]', 'RSV (Group A, Long Strain)', '> 10 µM'),
  ('Cc1ccc2ccc(N3CCN(C(=NC#N)Nc4ccccc4C)C(C(C)C)C3)nc2n1 (stereo not shown) [Example 1.68]', 'RSV (Group A, Long Strain)', '> 10 µM'),
  ('Cc1ccccc1N/C(=N/C#N)N1CCN(c2cnc3ccccc3n2)CC1C(C)(C)C (stereo not shown) [Example 1.46]', 'RSV (Group A, Long Strain)', '> 10 µM'),
  ('CCC(C)C1CN(c2cnc3ccccc3n2)CCN1/C(=N\C#N)Nc1ccccc1C (stereo not shown) [Example 1.47]', 'RSV (Group A, Long Strain)', '> 1.38 µM');

Hey, can you go through the list below and give me EC50 for every item?
1. Cc1ccccc1CN/C(=N/C#N)N1CCN(c2cnc3ccccc3n2)CC1C(C)C (stereo not shown) [Example 1.35]
2. Cc1ccccc1N/C(=N/C#N)N1CCN(c2cnc3ccccc3n2)CC1CC1CCCCC1 (stereo not shown) [Example 1.49]
3. CC(C)C1CN(c2cnc3ccccc3n2)CCN1/C(=N\C#N)Nc1ccc(C(F)(F)F)cc1 (stereo not shown) [Example 1.24]
4. Cc1cc2ncc(N3CCN(/C(=N\C#N)Nc4ccccc4C)C(C(C)C)C3)nc2cc1C (stereo not shown) [Example 1.50]

Result:
["> 10 µM", "> 3.2 µM", "> 6.68 µM", "> 3.2 µM"]

Value source: patent US10112911B2
